Assignment: determine reported Plant response rating, Crabgrass for the given compounds.
Tested on: crabgrass
Assay: Test B pre/postemergence crabgrass
Type: in vivo, Digitaria sanguinalis
Details: Rate 500 g/ha, Postemergence; scale 0 to 10, 0 no effect, 10 complete control

compound="CC(C)N(C(=O)n1oc(=O)n(C2CCCCCC2)c1=O)c1ccc(Cl)cc1 [Compound 339]" obs_value=2

// input: 3 compounds below; output: Plant response rating, Crabgrass for each
1. CC(C)N(C(=O)n1oc(=O)n(C(C)CCl)c1=O)c1ccc(F)cc1 (stereo not shown) [Compound 367]
2. Cc1c(-n2c(=O)on(C(=O)N(c3ccc(F)cc3)C(C)C)c2=O)ccc2ccccc12 [Compound 338]
3. Cc1nsc(Cl)c1Cn1c(=O)on(C(=O)N(c2ccc(F)cc2)C(C)C)c1=O [Compound 373]

Result:
8
0
2
